Listed here are molecules together with their documented inhibition.
biological target: Neuropilin-1 (Homo sapiens) (UniProt O14786); assay: blockers of CendR peptide binding to NRP-1 – biochemical, FP and AlphaScreen panel, dose response (AID 651650); conditions: NRP-1 b1b2 / RPARPAR peptide binding, FP or AlphaScreen; run 1, at 100 µM (top of the series)
Sequence (O14786 whole entry, looked up): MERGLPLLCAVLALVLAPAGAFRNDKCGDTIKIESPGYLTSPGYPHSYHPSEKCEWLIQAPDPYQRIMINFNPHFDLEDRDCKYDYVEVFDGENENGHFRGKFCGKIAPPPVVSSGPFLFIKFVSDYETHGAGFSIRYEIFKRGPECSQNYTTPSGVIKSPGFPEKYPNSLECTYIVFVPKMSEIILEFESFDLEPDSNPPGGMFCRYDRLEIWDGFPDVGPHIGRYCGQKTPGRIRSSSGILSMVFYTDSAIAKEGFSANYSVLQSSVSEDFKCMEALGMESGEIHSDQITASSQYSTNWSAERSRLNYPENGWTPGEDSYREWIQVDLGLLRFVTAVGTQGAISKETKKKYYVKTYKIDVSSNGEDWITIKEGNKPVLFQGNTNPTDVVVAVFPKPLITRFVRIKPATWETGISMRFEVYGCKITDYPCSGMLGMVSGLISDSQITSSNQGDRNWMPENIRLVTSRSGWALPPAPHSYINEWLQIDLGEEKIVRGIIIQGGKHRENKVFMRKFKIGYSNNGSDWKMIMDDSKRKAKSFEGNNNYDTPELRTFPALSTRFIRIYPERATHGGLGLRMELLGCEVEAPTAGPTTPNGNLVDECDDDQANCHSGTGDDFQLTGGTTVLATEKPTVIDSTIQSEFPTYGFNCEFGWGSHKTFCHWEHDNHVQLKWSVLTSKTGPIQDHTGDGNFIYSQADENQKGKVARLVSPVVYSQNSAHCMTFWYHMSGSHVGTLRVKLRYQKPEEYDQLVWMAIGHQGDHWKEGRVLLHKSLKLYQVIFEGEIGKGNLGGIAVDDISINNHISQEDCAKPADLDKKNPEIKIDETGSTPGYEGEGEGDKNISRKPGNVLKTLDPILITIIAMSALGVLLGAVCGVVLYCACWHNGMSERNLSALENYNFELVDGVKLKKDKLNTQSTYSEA
Value and unit, in that order.

molecule=Cc1onc(-c2ccc(Cl)cc2Cl)c1-c1csc(COc2ccccc2)n1 result=65.6%
molecule="COc1cccc(C(=O)N2N=C(c3ccccc3)CC2(O)C(F)(F)F)c1 (stereo unspecified)" result=35.9%
molecule=O=C(Nc1ccc(N2CCOCC2)cc1)c1cc(-n2cnnc2)ccc1Cl result=55%
molecule=O=C(c1ncn(Cc2ccccc2)c1C(=O)N1CCc2ccccc2C1)N1CCc2ccccc2C1 result=23%
molecule="Cc1cccc(CN2CCN(C3CN(Cc4cn(Cc5cccc(Cl)c5)nn4)S(=O)(=O)C3)CC2)c1 (stereo unspecified)" result=33.2%

Consider now this further molecule.
molecule `COc1cc(C(=O)Nc2cc3c(cc2N2CCCCC2)n(C)c(=O)n3C)cc(OC)c1OC` , inhibition observed: 57.1%
